# System: HIV-1
# procedure_text: microbe, parasite or virus in culture
# reported_conditions: Human immunodeficiency virus 1, CEM-SS, read-out: EC50 μM (±S.D.) p24
recorded_metric: EC50 (µM)
Use µM as the unit, but write only the number.

Request: Returns the measured EC50 for the input compound. Input: CCCc1cc(=O)oc2c3c(c4c(c12)OC(C)(C)C=C4)O[C@H](C)[C@@H](C)[C@@H]3O [calanolide A]
Result: 0.07

* * *

# Tested on: HIV-1
# procedure_text: microbe, parasite or virus in culture
# reported_conditions: Human immunodeficiency virus 1, CEM-SS, 144 h, read-out: EC50, inhibition of the cytopathic effects of HIV-1
pEC50: −log10 of the molar value.
recorded_metric: pEC50

Request: Returns the measured pEC50 for the input compound. Input: CCCc1cc(=O)oc2c3c(c4c(c12)OC(C)(C)C=C4)O[C@H](C)[C@@H](C)[C@@H]3O [calanolide A]
Result: ~7.00
